# assay name: Pharmacokinetic studies in male CD1 mice (PO and IV dosing, plasma by HPLC and MS)
# Format: in vivo, mouse
# test parameters: male, CD1, mouse, oral, 10 mg/kg, AUCinf,norm, dose-normalised, heading: AUCinf,norm
measurement kind: AUC(0-inf) (ng·h/mL)
The reply should be a number in ng·h/mL, with the unit left off.

Exam item: What value of AUC(0-inf) has been recorded for this entry: [2H]c1c([2H])c(Sc2cc(Cl)cc(Cl)c2)c(S(=O)(=O)N2CCN(C3CCCC3)CC2)c([2H])c1C#N
Marked response: 106

###

# assay name: Pharmacokinetic studies in male CD1 mice (PO and IV dosing, plasma by HPLC and MS)
# Format: in vivo, mouse
# test parameters: mouse
measurement kind: half-life (h)
Give just the numeric value; h need not be written.

Exam item: half-life lookup needed for [2H]c1c([2H])c(Sc2cc(Cl)cc(Cl)c2)c(S(=O)(=O)N2CCN(C3CCCC3)CC2)c([2H])c1C#N , thanks.
Marked response: 2.51

###

# assay name: Pharmacokinetic studies in male CD1 mice (PO and IV dosing, plasma by HPLC and MS)
# Type: in vivo, mouse
# test parameters: male, CD1, mouse, oral, 10 mg/kg, dose-normalised, read-out: Cmax,norm
measurement kind: Cmax (ng/mL)
The reply should contain only the number, in ng/mL.

Exam item: Cmax for [2H]c1c([2H])c(Sc2cc(Cl)cc(Cl)c2)c(S(=O)(=O)N2CCN(C3CCCC3)CC2)c([2H])c1C#N [Compound A1] ?
Marked response: 14.9

###

# assay name: Pharmacokinetic studies in male CD1 mice (PO and IV dosing, plasma by HPLC and MS)
# Assay type: in vivo, mouse
# test parameters: mouse, oral, 10 mg/kg
measurement kind: Tmax (min)
Give the value, in units of min, as a plain number.

Exam item: # query: Tmax of entry [2H]c1c([2H])c(Sc2cc(Cl)cc(Cl)c2)c(S(=O)(=O)N2CCN(C3CCCC3)CC2)c([2H])c1C#N
Marked response: 30

###

# assay name: Pharmacokinetic studies in male CD1 mice (PO and IV dosing, plasma by HPLC and MS)
# Type: in vivo, mouse
# test parameters: mouse
measurement kind: MRT (h)
// return numeric value only (unit: h, not printed)

Exam item: Look at this compound and give its reported MRT. [2H]c1c([2H])c(Sc2cc(Cl)cc(Cl)c2)c(S(=O)(=O)N2CCN(C3CCCC3)CC2)c([2H])c1C#N
Marked response: 6.9

###

# assay name: Pharmacokinetic studies in male CD1 mice (PO and IV dosing, plasma by HPLC and MS)
# Type: in vivo, mouse
# test parameters: male, CD1, mouse, oral, 10 mg/kg, read-out: AUCinf
measurement kind: AUC(0-inf) (ng·h/mL)
Respond numerically; units are ng·h/mL and should not be typed.

Exam item: Return reported AUC(0-inf); argument: [2H]c1c([2H])c(Sc2cc(Cl)cc(Cl)c2)c(S(=O)(=O)N2CCN(C3CCCC3)CC2)c([2H])c1C#N
Marked response: 1060
